biological target: Discoidin domain-containing receptor 2 (Homo sapiens, UniProt Q16832); note: in the data inactive means no Kd found up to 30 µM
Sequence (Q16832 whole entry, the tested form may be a part): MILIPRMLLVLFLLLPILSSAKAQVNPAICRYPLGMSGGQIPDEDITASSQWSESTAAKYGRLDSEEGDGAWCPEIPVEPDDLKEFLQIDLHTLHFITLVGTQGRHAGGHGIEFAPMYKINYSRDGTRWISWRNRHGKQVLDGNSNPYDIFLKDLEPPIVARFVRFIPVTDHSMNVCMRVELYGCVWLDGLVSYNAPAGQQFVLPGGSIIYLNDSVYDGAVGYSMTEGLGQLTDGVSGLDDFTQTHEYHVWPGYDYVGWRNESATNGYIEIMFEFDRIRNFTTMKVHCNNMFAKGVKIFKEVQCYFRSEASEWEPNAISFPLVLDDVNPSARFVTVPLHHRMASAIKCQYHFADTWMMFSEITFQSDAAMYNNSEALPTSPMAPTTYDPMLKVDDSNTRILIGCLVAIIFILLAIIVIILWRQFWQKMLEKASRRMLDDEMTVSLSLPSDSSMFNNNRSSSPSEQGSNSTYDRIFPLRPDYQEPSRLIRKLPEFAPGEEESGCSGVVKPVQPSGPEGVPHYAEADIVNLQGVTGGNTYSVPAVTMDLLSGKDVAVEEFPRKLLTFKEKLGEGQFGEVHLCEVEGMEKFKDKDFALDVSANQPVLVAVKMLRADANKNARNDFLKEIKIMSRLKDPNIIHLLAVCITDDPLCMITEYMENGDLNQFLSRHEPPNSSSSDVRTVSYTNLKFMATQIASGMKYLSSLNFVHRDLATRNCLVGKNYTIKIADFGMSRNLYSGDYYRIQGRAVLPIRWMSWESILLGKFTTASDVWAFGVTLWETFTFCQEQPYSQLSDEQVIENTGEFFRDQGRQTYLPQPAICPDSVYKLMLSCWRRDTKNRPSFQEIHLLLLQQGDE
Calls of active or inactive are those of the source.
Respond with a class label; see yes for active, no for inactive

Challenge: Could you kindly confirm the outcome this assay logged for CC[C@@](C)(Nc1ccnc(-c2c[nH]c3ncccc23)n1)C(=O)NCC(F)(F)F [DECERNOTINIB] ?
Response given: no

Challenge: Called result for O=C(NC[C@H](O)CO)c1ccncc1Nc1ccc(I)cc1F [PIMASERTIB]
Response given: no

Challenge: In this assay, the call recorded for COc1cc2nccc(Oc3ccc(NC(=O)C4(C(=O)Nc5ccc(F)cc5)CC4)cc3)c2cc1OC [CABOZANTINIB] was what?
Response given: yes

Challenge: I'd appreciate the recorded outcome for COc1cc2ncnc3c2cc1OCCCCCN(C)Cc1ccc(Br)cc1N3 [JNJ-26483327] from this test.
Response given: no

Challenge: What did this assay record as the result for C[C@]1(O)C[C@@H](c2nc(-c3ccc4ccc(-c5ccccc5)nc4c3)c3c(N)nccn32)C1 [LINSITINIB] ?
Response given: no

Challenge: Per the assay record, what outcome was assigned to Cc1c(NC(=O)OC[C@@H]2COCCN2)cn2ncnc(Nc3ccc4c(cnn4Cc4cccc(F)c4)c3)c12 [AC-480] ?
Response given: no

Challenge: For Cn1cc(-c2[nH]c3cc(NC(=O)[C@H](N)C4CCCCC4)cc4c3c2C=NNC4=O)cn1 , what call appears in the results of this test?
Response given: no

Challenge: Lab log entry: Cc1ccc(C(=O)Nc2ccc(Oc3cc4cnn(C)c4cc3-c3cn[nH]c3)c(F)c2)c(=O)n1-c1ccc(F)cc1 [MERESTINIB] — outcome as called in the assay?
Response given: yes

Challenge: GET /call?item= COc1cccc(Nc2ncnn3ccc(CN4CC[C@@H](N)[C@H](O)C4)c23)c1 [BMS-690514] returns the recorded outcome of this test.
Response given: no

Challenge: Which result was noted for this molecule in the test: C#Cc1cccc(Nc2ncnc3cc4c(cc23)OCCOCCOCCO4)c1 [ICOTINIB]
Response given: no

Challenge: Field: outcome | Entry: COc1cc(Nc2ncc(F)c(Nc3ccc4c(n3)N(COP(=O)(O)O)C(=O)C(C)(C)O4)n2)cc(OC)c1OC [FOSTAMATINIB]
Response given: no

Challenge: Identify the outcome logged in this assay for the molecule shown: CC1(COc2ccc3c(c2)ncn3-c2ccc3cccc(N4CCC(N)CC4)c3n2)COC1 [CRENOLANIB]
Response given: no

Challenge: What is the recorded call for this molecule in the test? Cc1cc(Nc2nc(N[C@@H](C)c3ncc(F)cn3)ncc2Cl)n[nH]1 [AZD-1480]
Response given: no

Challenge: Write down the call the test reported for this molecule. Item: Cc1cc(-c2cc(OC(=O)c3ccccc3)ccc2Cl)cc2nnc(Nc3ccc(OCCN4CCCC4)cc3)nc12 [TG100-801]
Response given: no

Challenge: Fill in: this test's call for NC[C@@](O)(c1ccc(Cl)cc1)c1ccc(-c2cn[nH]c2)cc1 [AT-13148] is ___
Response given: no

Challenge: Given C=CC(=O)Nc1cccc(Nc2nc(Nc3ccc(N4CCN(C(C)=O)CC4)cc3OC)ncc2C(F)(F)F)c1 [ROCILETINIB] , state the outcome it received in this test.
Response given: no
